biological target: Recombinant human soluble guanylate cyclase (sGC), alpha 1 / beta 1 subunits, heme-free (Homo sapiens, UniProt Q02108+Q02153); construct: histidine tag (C); made in house; host or cells: Sf9 insect cells (baculovirus coinfection); assay: Molecular assay: cGMP formation by heme-free recombinant sGC (CisBio cGMP detection kit); assay type: biochemical; settings: 300 pM heme-free sGC, 37° C., 60 min, cGMP readout; read-out: EC50 nM, Activity of Compounds in Molecular Assay
Sequence (Q02108 whole entry partner): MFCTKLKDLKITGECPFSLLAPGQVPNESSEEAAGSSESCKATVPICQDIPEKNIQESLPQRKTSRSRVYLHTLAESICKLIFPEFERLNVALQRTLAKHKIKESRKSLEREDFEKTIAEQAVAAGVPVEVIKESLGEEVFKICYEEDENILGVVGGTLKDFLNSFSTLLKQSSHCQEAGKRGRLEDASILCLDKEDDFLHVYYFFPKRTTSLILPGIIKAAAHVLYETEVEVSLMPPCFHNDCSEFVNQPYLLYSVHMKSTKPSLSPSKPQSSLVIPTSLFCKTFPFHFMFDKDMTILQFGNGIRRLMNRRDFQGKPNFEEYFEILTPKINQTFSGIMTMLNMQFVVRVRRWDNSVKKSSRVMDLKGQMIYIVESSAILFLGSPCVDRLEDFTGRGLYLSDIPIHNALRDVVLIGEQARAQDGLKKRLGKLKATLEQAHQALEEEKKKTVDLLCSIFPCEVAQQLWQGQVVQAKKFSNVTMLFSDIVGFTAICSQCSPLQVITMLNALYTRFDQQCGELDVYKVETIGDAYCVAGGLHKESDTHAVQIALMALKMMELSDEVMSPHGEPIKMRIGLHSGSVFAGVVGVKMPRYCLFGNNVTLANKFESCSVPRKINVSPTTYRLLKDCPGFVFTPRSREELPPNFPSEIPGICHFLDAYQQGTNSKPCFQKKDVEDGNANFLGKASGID
Sequence (Q02153 whole entry): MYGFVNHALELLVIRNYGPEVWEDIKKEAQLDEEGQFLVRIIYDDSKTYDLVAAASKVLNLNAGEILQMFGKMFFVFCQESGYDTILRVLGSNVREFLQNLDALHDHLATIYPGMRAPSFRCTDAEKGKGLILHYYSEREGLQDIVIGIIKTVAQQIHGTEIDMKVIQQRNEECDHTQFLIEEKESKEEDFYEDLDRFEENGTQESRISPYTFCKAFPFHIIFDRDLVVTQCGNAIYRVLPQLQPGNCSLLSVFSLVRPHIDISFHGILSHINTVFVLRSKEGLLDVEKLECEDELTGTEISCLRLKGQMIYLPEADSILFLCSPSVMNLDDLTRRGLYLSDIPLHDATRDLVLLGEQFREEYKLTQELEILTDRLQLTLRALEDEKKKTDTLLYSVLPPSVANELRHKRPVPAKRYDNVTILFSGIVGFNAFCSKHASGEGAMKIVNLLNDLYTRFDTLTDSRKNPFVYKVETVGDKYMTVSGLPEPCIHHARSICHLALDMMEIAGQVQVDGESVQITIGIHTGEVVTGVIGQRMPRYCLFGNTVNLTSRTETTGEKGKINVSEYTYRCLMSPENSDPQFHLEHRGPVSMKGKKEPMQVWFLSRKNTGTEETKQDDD
Endpoint: EC50 (nM)

See these solved cases before continuing.
- Molecule: "Cc1cc(C(=O)N2CCCCC2)ccc1COc1ccc(F)cc1-c1csc([C@H]2CC[C@@H](C(=O)O)CC2)n1 [Compound 56]"
  Unit Label: "nM"
  EC50: 1600
- Molecule: "Cc1ccc(OCc2ccc(C(=O)N3CCCCC3)cc2C)c(-c2csc(N3C[C@H]4C[C@@H](C3)[C@H]4C(=O)O)n2)c1 [Compound 236]"
  Unit Label: "nM"
  EC50: 190
- Molecule: "Cc1cc(C(=O)N2CCCCC2)ccc1COc1ccc(C#N)cc1-c1csc(N2CC3C(C2)C3C(=O)O)n1 (stereo not shown) [Compound 64]"
  Unit Label: "nM"
  EC50: 1800
- Molecule: "Cc1cc(CN2CCS(=O)(=O)CC2)ccc1COc1ccc(Cl)cc1-c1csc(N2CCC(C(=O)O)CC2C)n1 (stereo not shown) [Compound 143]"
  Unit Label: "nM"
  EC50: 38
- Molecule: "Cc1ccc(OCc2ccc(CN3CCN(C(=O)C4CCOC4)CC3)cc2C)c(-c2csc(N3CCC(C(=O)O)CC3)n2)c1 (stereo not shown) [Compound 197]"
  Unit Label: "nM"
  EC50: 230

[a] Cc1cc(C(=O)N2CCCCC2)ccc1COc1ccc(Cl)cc1-c1csc(N2CC3CCC(C2)C3C(=O)O)n1 (stereo not shown) [Compound 118]
[b] Cc1cc(C(=O)N2CCCCC2)ccc1COc1ccc(C#N)cc1-c1csc([C@H]2CC[C@H](C(=O)O)CC2)n1 [Compound 183]
[c] Cc1cc(CN2CCOCC2)ccc1COc1ccc(C#N)cc1-c1csc(C2=CCC(C(=O)O)CC2)n1 (stereo not shown) [Compound 189]
[d] Cc1cc(CN2CCOCC2)ccc1COc1ccc(C#N)cc1-c1csc(N2CCC(C(=O)O)C(C)C2)n1 (stereo not shown) [Compound 72]
input: Thanks in advance: please rank these 4 entries by EC50, highest to lowest. To answer, write out the labels according to the requested order.
output: c, b, a, d
(c: 9000 nM, b: 4400 nM, a: 85 nM, d: 4.8 nM)

[P] Cc1cc(C(=O)N2CCCCC2)ccc1COc1ccc(Cl)cc1-c1csc(N2CC3C(C2)C3C(=O)O)n1 (stereo not shown) [Compound 78]
[Q] Cc1cc(CN2CCS(=O)(=O)CC2)ccc1COc1ccc(Cl)cc1-c1csc(N2CCC(C(=O)O)C(C(F)(F)F)C2)n1 (stereo not shown) [Compound 157]
input: Pick one: P or Q . Which one has the lower reported EC50? Select an item and report its label.
output: P
(P: 550 nM, Q: 940 nM)
